System: Vero E6 infected with SARS-CoV-2
Assay: morphology score (similarity to uninfected cells); higher = more like uninfected cells
Settings: 24 h
Cut-off 0.2 on morphology score, inclusive. At or above means yes; below means no.

MOLECULE | EXPERIMENTAL_SYSTEM | ANSWER_LABEL
CCCNC(=O)NS(=O)(=O)c1ccc(Cl)cc1 [chlorpropamide] (10 µM) | Vero E6 infected with SARS-CoV-2 | yes
CC(C)(CO)c1cc2cc(NC(=O)C3(c4ccc5c(c4)OC(F)(F)O5)CC3)c(F)cc2n1C[C@@H](O)CO [tezacaftor] (10 µM) | Vero E6 infected with SARS-CoV-2 | no
COC(=O)CCc1ccc(OCC(O)CNC(C)C)cc1 (configuration not stated) [esmolol] (10 µM) | Vero E6 infected with SARS-CoV-2 | no
Cn1c(=O)c2c(ncn2CC(O)CO)n(C)c1=O (configuration not stated) [dyphylline] (10 µM) | Vero E6 infected with SARS-CoV-2 | no
Cc1cc(Nc2ncnc3ccc(-c4ccc(CNCCS(C)(=O)=O)o4)cc23)ccc1Oc1ccn2ncnc2c1 [HER2-Inhibitor-1] (10 µM) | Vero E6 infected with SARS-CoV-2 | no
CC(C)[C@@H](CN1CC[C@@](C)(c2cccc(O)c2)[C@@H](C)C1)NC(=O)[C@H]1Cc2ccc(O)cc2CN1 (10 µM) | Vero E6 infected with SARS-CoV-2 | no
OCc1cccnc1 [nicotinyl-alcohol-tartrate] (10 µM) | Vero E6 infected with SARS-CoV-2 | no
NC[C@H]1CC[C@H](C(=O)O)CC1 [tranexamic-acid] (10 µM) | Vero E6 infected with SARS-CoV-2 | no
O=C1N(c2ccccc2)c2ccccc2C1(Cc1ccncc1)Cc1ccncc1 [linopirdine] (10 µM) | Vero E6 infected with SARS-CoV-2 | yes
Cc1ccccc1C(c1ccccc1C)N1C2CCC1CC(O)(c1ccccc1)C2 (configuration not stated) (10 µM) | Vero E6 infected with SARS-CoV-2 | yes
Nc1nc(O)c2nc(Br)n([C@@H]3O[C@@H]4COP(=O)(O)O[C@H]4[C@H]3O)c2n1 [8-bromo-cGMP] (10 µM) | Vero E6 infected with SARS-CoV-2 | no
CC(=O)O/N=C1\C(=O)N(Cc2cc(Cl)ccc2Cl)c2ccc(Cl)cc21 (10 µM) | Vero E6 infected with SARS-CoV-2 | yes
O=C1COc2c(CCNCCN(C(=O)CCNCCc3ccc(Cl)c(Cl)c3)C3CCCCC3)ccc(O)c2N1 (10 µM) | Vero E6 infected with SARS-CoV-2 | no
Cc1ccc(-c2csc3ncnc(SCCC(=O)O)c23)cc1 (10 µM) | Vero E6 infected with SARS-CoV-2 | no
OC[C@@H](O)[C@@H](O[C@@H]1O[C@H](CO)[C@H](O)[C@H](O)[C@H]1O)[C@H](O)[C@@H](O)CO (10 µM) | Vero E6 infected with SARS-CoV-2 | no
CC(C)(C)c1ccc(CN2CCN(C(c3ccccc3)c3ccc(Cl)cc3)CC2)cc1 (configuration not stated) [buclizine] (10 µM) | Vero E6 infected with SARS-CoV-2 | yes
C[n+]1c2cc(N)ccc2cc2ccc(N)cc21 [acriflavinium] (0.833333 µM) | Vero E6 infected with SARS-CoV-2 | no

----------
System: Vero E6 infected with SARS-CoV-2
Experiment: SARS-CoV-2 infection rate relative to infected DMSO; higher = more infection, active = 60 or less
Settings: 24 h
SARS-CoV-2 infection rate by entry:
RECORDED_ENDPOINT: SARS-CoV-2 infection rate (%)

COMPOUND | UNIT | NUMERIC_RESULT
Cc1c(NC(=O)c2cc3c(s2)CCCC3)cccc1-c1cn(C)c(=O)c(Nc2ccc(C3C(=O)N(C)CCN3C)cc2)n1 (stereo in doubt) (10 µM) | % | 69
CCOC(=O)[C@H](CCc1ccccc1)N[C@H]1CS[C@H](c2cccs2)CN(CC(=O)O)C1=O [temocapril] (10 µM) | % | 114
CO[C@H]1O[C@@H]2O[C@@]3(C)CC[C@H]4[C@H](C)CC[C@@H]([C@H]1C)[C@@]24OO3 [artemether] (10 µM) | % | 105
CC[C@H]1OC(=O)[C@H](C)[C@@H](O[C@H]2C[C@@](C)(OC)[C@@H](O)[C@H](C)O2)[C@H](C)[C@@H](O[C@@H]2O[C@H](C)C[C@H](N(C)C)[C@H]2O)[C@](C)(OC)C[C@@H](C)C(=O)[C@H](C)[C@@H](O)[C@]1(C)O [clarithromycin] (10 µM) | % | 109
N[C@H](CO)C(=O)O [D-serine] (10 µM) | % | 104
N=C(N)NC(=O)c1cnccn1 [pyrazinoylguanidine] (10 µM) | % | 108
CC(=O)NO [acetohydroxamic-acid] (10 µM) | % | 106
C[C@H](CCC(=O)O)[C@H]1CC[C@H]2[C@@H]3C(=O)C[C@@H]4CC(=O)CC[C@]4(C)[C@H]3CC(=O)[C@]12C [dehydrocholate-acid] (10 µM) | % | 94.8

----------
System: Vero E6 infected with SARS-CoV-2
Assay: inhibition of SARS-CoV-2 cytopathic effect; higher = more antiviral protection, active = above 15
Settings: 8.33 nM; 48 h
RECORDED_ENDPOINT: inhibition of SARS-CoV-2 cytopathic effect (%)

COMPOUND | UNIT | NUMERIC_RESULT
Cc1coc2c1C(=O)C(=O)c1c-2ccc2c1CCCC2(C)C | % | 2.92
Cc1cc(Nc2ncnc3ccc(-c4ccc(CNCCS(C)(=O)=O)o4)cc23)ccc1Oc1ccn2ncnc2c1 | % | 3.23
Cc1cc2ncc(C(=O)NCC(C)(C)NCC(=O)N3CCC[C@H]3C#N)cn2n1 | % | -0.56
COc1ccc2c(c1)CN(C)CC2c1ccc(Cl)c(Cl)c1 (centres undefined) | % | 2.5
O=C(O)C(=O)O.[NH-][C@@H]1CCCC[C@H]1[NH-].[Pt+2] | % | 1.96
CC1(C)S[C@@H]2[C@H](NC(=O)COc3ccccc3)C(=O)N2[C@H]1C(=O)O | % | 1.87
CS(=O)(=O)Oc1ccc2c(NC(N)=O)c(C(=O)c3ccc(Cl)cc3Cl)oc2c1 | % | -9.08
Cc1cccc2c1CC[C@H](CN1CCC(c3c(Cl)cccc3Cl)CC1)C[C@@H]2O | % | 0.72
O=C(CN1C2=NCCN2c2ccccc21)c1ccc(-c2ccccc2)cc1 | % | 3.75
O=C1c2ccccc2C(Cc2ccncc2)(Cc2ccncc2)c2ccccc21 | % | -1.95
Cc1cc(C(=O)O)sc1C(N)C(=O)O (centres undefined) | % | -0.48
CC1(C)CCC(C)(C)c2cc(NC(=O)c3ccc(C(=O)O)cc3)ccc21 | % | 1.67
C[C@@H](O)[C@H]1C(=O)N2C(C(=O)O)=C(SCCNC=N)C[C@H]12 | % | 10
NC(=O)c1ncn([C@@H]2O[C@H](CO)[C@@H](O)[C@H]2O)c1O | % | -0.82
CCOC(=O)/C=C(C)/C=C/C=C(C)/C=C/c1c(C)cc(OC)c(C)c1C [etretinate] | % | 0.11
C[C@@]1(c2cc(-c3cncnc3)c(F)cc2F)CCSC(N)=N1 | % | -3.4
CCOc1ccc(-c2ccc(Cn3c(CC(C)(C)C(=O)O)c(SC(C)(C)C)c4cc(OCc5ccc(C)cn5)ccc43)cc2)cn1 | % | 0.1
Cc1c(C(=O)NN2CCCCC2)nn(-c2ccc(Cl)cc2Cl)c1-c1ccc(Cl)cc1 | % | 1.55
CC(=O)c1cnc2ccc(-c3cc(Cl)c(O)c(Cl)c3)nc2c1N[C@H]1CC[C@H](CN(C)C)CC1 | % | 0.72
Fc1ccc(-c2cncc(CN3CCN(c4cccc5c4OCCO5)CC3)c2)cc1 | % | -1.15
COc1ccc(-c2oc3cc(OC)ccc3c2C(=O)c2ccc(C#N)cc2)cc1 | % | -2.08
CC[C@@]1([C@H]2O[C@H]([C@H]3O[C@@](O)(CO)[C@H](C)C[C@@H]3C)C[C@H]2C)CC[C@H]([C@@]2(C)CC[C@]3(C[C@H](O)[C@@H](C)[C@@H]([C@H](C)[C@H](OC)[C@@H](C)C(=O)O)O3)O2)O1 | % | -0.7
COC[C@H](NC(=O)c1cnc(C)s1)C(=O)N[C@@H](COC)C(=O)N[C@@H](Cc1ccccc1)C(=O)[C@@]1(C)CO1 | % | 3.66
Nn1cnc2cc3ccccc3cc2c1=O | % | 0.85
CNC(=O)c1ccc(N2C(=S)N(c3cnc(C#N)c(C(F)(F)F)c3)C(=O)C23CCC3)cc1F [apalutamide] | % | 1.02
CCCCOc1ccc(OCCCN2CCOCC2)cc1 | % | -1.02
CCCCCCCCNC(=O)/C(C#N)=C/c1cn(CCCN(C)C)c2ccccc12 | % | 2.28
O=P(O)(O)C(O)(Cc1cccnc1)P(=O)(O)O [risedronate] | % | -1.25
NC[C@H]1O[C@H](O[C@H]2[C@H](O[C@@H]3O[C@H](CO)[C@@H](O)[C@H]3O)[C@@H](O)[C@H](N)C[C@@H]2N)[C@H](N)[C@@H](O)[C@@H]1O [ribostamycin-sulfate] | % | -0.235
CCOC(=O)CC(=O)N1CCSC1COc1ccccc1OC (centres undefined) | % | 0.03
CC(C)OC(=O)[C@H](C)N[P@@](=O)(OC[C@H]1O[C@@H](n2ccc(=O)[nH]c2=O)[C@](C)(F)[C@@H]1O)Oc1ccccc1 | % | -0.76
NS(=O)(=O)NCc1csc2ccccc12 | % | -0.74
COc1ccc(-n2c(SCCCN3C(=O)c4cccc5cccc(c45)C3=O)nnc2-c2ccncc2)cc1 | % | 2.51
NS(=O)(=O)c1cccc2c1c([N+](=O)[O-])cc1nc(O)c(O)nc12 | % | 2.79
